biological target: full-length human PRMT6 (Flag- and His-tagged) (Homo sapiens); assay: PRMT6 Biochemical Assay (3H-SAM Flashplate, peptide substrate); conditions: single experiment or average of multiple experiments; read-out: Biochemical IC50 PRMT6
Sequence (Q96LA8 with tags, fused parts or gaps): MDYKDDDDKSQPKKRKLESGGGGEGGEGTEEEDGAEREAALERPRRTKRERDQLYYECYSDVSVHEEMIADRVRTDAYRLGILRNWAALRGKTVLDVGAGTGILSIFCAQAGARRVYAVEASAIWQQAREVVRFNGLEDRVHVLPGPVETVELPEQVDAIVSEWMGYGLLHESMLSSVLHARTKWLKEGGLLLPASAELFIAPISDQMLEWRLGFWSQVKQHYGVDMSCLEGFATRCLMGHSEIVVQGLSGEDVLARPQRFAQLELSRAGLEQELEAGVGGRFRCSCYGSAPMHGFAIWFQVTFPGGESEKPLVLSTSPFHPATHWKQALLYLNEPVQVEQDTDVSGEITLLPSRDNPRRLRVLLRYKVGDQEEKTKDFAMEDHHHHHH
pIC50: −log10 of the molar value.
Measurement Type: pIC50

What does the record list as pIC50 for `CC[C@H]1CC[C@H](c2n[nH]cc2CN(C)CCNC)CC1` ?
8.09

Cool, now CNCCN(C)Cc1c[nH]nc1C1CCC2(CC1)C(=O)NC(=O)N2C (centres unmarked)
7.14

Then what about the compound `CNCCN(C)Cc1c[nH]nc1[C@H]1CC[C@@H](N(CC(C)C)C(=O)CCOc2ccccc2)CC1` ?
7.83

What would you report for CNCCN(C)Cc1c[nH]nc1C1CCC2(CC1)CCN(CC(C)C)C2=O (centres unmarked) ?
7.15

Another compound: `CCN(C(=O)CC1CCOCC1)[C@H]1CC[C@@H](c2n[nH]cc2CN(C)CCNC)CC1`
6.95

# repeat for CNCCN(C)Cc1c[nH]nc1C1CCC(C)(C)C(C(=O)NCCCOC)C1 (centres unmarked)
7.14

Please answer likewise for `CN(CCN)Cc1c[nH]nc1CCc1ccccc1`
8.00

Please give the result for `CN(CCN)Cc1c[nH]nc1C1=CCOCC1` too.
6.51

[1] CNCCN(C)Cc1c[nH]nc1[C@H]1CC[C@@H](N(CCCOC)C(=O)CCOc2ccccc2)CC1
[2] CNCCN(C)Cc1c[nH]nc1C1CCC2(CC1)CC(C)OC(C)C2 (centres unmarked)
Which numeric pIC50 is bigger, that of 1 or that of 2 ? Write down the label of the entry you select.
2

[P] CNCCN(C)Cc1c[nH]nc1C1CCC(=O)N(Cc2ccc(C(F)(F)F)cc2)C1 (centres unmarked)
[Q] CNCCN(C)Cc1c[nH]nc1[C@H]1CC[C@]2(CCN(CC(C)C)C2=O)CC1
Between P and Q , which one shows the larger pIC50 value? Select an item and report its label.
Q
(Q: 7.58, P: 6.97)

[a] CNCCN(C)Cc1c[nH]nc1[C@H]1CC[C@@H](O)C2(CCCCC2)C1 (single isomer, unassigned)
[b] CCOC1CC(OCC)CC(c2n[nH]cc2CN(C)CCNC)C1 (centres unmarked)
Select the item whose pIC50 value is smaller, choosing between a and b . Respond using the label that marks the chosen record.
b

[P] CNCCN(C)Cc1c[nH]nc1C1=CCC(CCOC)(CCOC)CC1
[Q] CNCCN(C)Cc1c[nH]nc1[C@H]1CC[C@H](N(CCOc2ccccc2)C(=O)CC(C)C)CC1
Which value of pIC50 is greater, the one for P or the one for Q ? Give the label of your selection.
Q
(Q: 7.80, P: 7.05)

All values here come from patent US11512053B2.
